The values you see were collected from the nanobody polyreactivity screen of Harvey et al. (2022).

# method-summary: yeast display, Sf9 membrane polyspecificity reagent, FACS + sequencing; frameworks hold sequencing errors

{"construct-sequence": "QVQLVESGGGLVQAGGSLRLSCAASGFTFTYYAMGWYRQAPGKERELVAAISSSGGRTYYADSVKGRFTISRDNAKNTVYLQMNSLKPEDTAVYYCAARSVSATPDFHYWGQGTQVTVSS", "polyreactivity (PSR sort gate)": "high polyreactivity"}
{"construct-sequence": "QVKLVESGGGLVQAGGSLRLSCAASGSTFVGYAMGWYRQAHGKERELVAAINDSGGSTYYADSVKGRFTISRDNAKNTVYLQMNSLKPEDTAVYYCAADSSGTSWYTFDYWGQGTQVTVSS", "polyreactivity (PSR sort gate)": "low polyreactivity"}
{"construct-sequence": "QVQLVESGGGLVQAGGSLRLSCAASGITIYEYAMGWYRQAPGKERELVAAITSGGTTNYADSVKGRFTISRDNAKNTVYLQMNSLKPEDTAVYYCAKDGGEGYDYWGQGTQVTVSS", "polyreactivity (PSR sort gate)": "low polyreactivity"}
{"construct-sequence": "QVQLVESGGGLVQAGGSLRLSCAASGIIFRWYTMGWYRQAPGKERELVAAISSGGSTYYADSVKGRFTISRDNAKNTVYLQMNSLKPEDTAVYYCAARYITTYAYGYWGQGTQVTVSS", "polyreactivity (PSR sort gate)": "high polyreactivity"}
{"construct-sequence": "QVQLVESGGGLVQAGGSLRLSCAAYGFFFPFYTMGWYRQAPGKERELVAAIRYSAGRTYYADSVKGRFTISRDNAKNTVYLQMNSLKPEDTAVYYCAADAIYSRAWGFDYWGQGTQVTVSS", "polyreactivity (PSR sort gate)": "high polyreactivity"}
{"construct-sequence": "HVQLVESGGGLVQAGGSLRLSCAASGSTFTVNAMGWYRQAPGKERELVAAISASGGRTYYADSVKGRFTISRDNAKNTVYLQMNSLKPEDTAVYYCAARFRTWGNREAGYYWGQGTQVTVSS", "polyreactivity (PSR sort gate)": "high polyreactivity"}
{"construct-sequence": "QVQLVESGGGLVQAGGSHRLSCAASGRIFRSYAMGWYRQAPGKERELVAAISDRGGSTYYADSVKGRFTISRDNAKKTVYVQMNRLKAEDTAVYSCNAPRGGRNTVYYWGQGTQVTVSS", "polyreactivity (PSR sort gate)": "high polyreactivity"}
{"construct-sequence": "QFQLVESGGGLVQAGGSLRLSCAASGRIFPLYVMGWYRQAPGKERELVAAMSRSGSRTYYADSVKGRFTISRDNAKNTVYFQMNSLKPEDTAVYYCAAVPDGTTRYDGDYWGQGTQVTVSS", "polyreactivity (PSR sort gate)": "high polyreactivity"}
{"construct-sequence": "QVQLVESGGGLVQAGGSLRLSCAASGSTLGYYSMGWYRQAPGKERELVAAIRYSDGNTYYADSVKGRFTISRDNAKNTVYLQMNSLKPEDTAVYYCAADGGYYGRDYWGQVTQVTVSS", "polyreactivity (PSR sort gate)": "high polyreactivity"}
{"construct-sequence": "QVQLVESGGGVVQAGGSLRLSCAASGRIFRYYTMGWYRQAPGKERELVASITGSGTSTYYADSVKGRFTISRDNAKNTVYLQMNSLKPEDNAVYYCNARGFRVASHAAWYQYDYWGQGTQVTVSS", "polyreactivity (PSR sort gate)": "high polyreactivity"}
{"construct-sequence": "QVQLVESGGGLVQAGGSLRLSCVASGLTFYYYAMGWYRQAPGKERELVAAISSGGSTYYADSVKGRFTISRDNAKNTVYLQMNSLKPEDTAVYYCNTYRYRVWGLMYWGQGTQVTLSS", "polyreactivity (PSR sort gate)": "high polyreactivity"}
